Data origin, for the record: PubChem BioAssay AID504834

Assay: Primary qHTS for delayed death inhibitors of the malarial parasite plastid, 96 hour incubation
Settings: P. falciparum luciferase reporter growth; series mostly up to 28.7 µM
The campaign covered roughly 320,000 compounds. About 22,000 (6.9%) were called active. About 27% were inconclusive and are not listed. The call rests on the fitted dose curve; in most records, active means well fitted inhibition curve with a large enough effect; inconclusive means small, poorly fitted or top-dose-only effect, or another doubt; inactive means no such curve, though single readings can be large or run the other way. What follows is part of a selection rich in actives, with near analogues and random picks from the rest.
Pick one: YES (active), NO (inactive)

What was the test verdict on C/C(=N\NC(=O)Cc1ccc(Br)cc1)c1cccnc1 ?
NO

Tell me the recorded outcome of this test for CCCN1CCN(CCCNC(=O)CN2C(=O)COc3ccccc32)CC1 .
NO

Hi, sorry to bother you, what did the test record for Cc1ccc2c(c1)N(CC(=O)NCCc1ccc(Cl)cc1)C(=O)c1cccnc1O2 ?
YES

Write down the call the test reported for this compound. Item: CCCC(C(=O)NCc1ccco1)N(C(=O)CNS(=O)(=O)c1ccccc1)C1CCCC1 (stereo not given)
YES

State the result this test recorded for COc1ccc(N=Nc2ccc(O)c(P(=O)(c3ccccc3)c3ccccc3)c2)cc1 .
NO

Which outcome was entered for the compound COc1ccc(CC(=O)N/N=C(\C)c2ccccn2)cc1 in this test?
YES

Called result for CNC(=O)c1ccsc1NC(=O)c1ccc(S(=O)(=O)N2CCc3ccccc32)cc1
YES

Lab log entry: Cn1c(O)c(C=Nc2ccc3c(c2)CCC3)c(=O)n(C)c1=O — outcome as called in the assay?
NO

Recorded test call requested for CN(C)C(=O)Cn1c(=O)n(S(=O)(=O)c2ccccc2)c2ccccc21
NO

In this assay, the call recorded for CC(C)C(C(=O)NCc1ccco1)N(CC1CCCO1)C(=O)CNS(=O)(=O)c1ccc(F)cc1 (stereo not given) was what?
NO
